target-of-assay: URAT-1 transporter (Homo sapiens, UniProt Q96S37)
Construct: expressed in transfected cells
Sequence (Q96S37 with tags, fused parts or gaps): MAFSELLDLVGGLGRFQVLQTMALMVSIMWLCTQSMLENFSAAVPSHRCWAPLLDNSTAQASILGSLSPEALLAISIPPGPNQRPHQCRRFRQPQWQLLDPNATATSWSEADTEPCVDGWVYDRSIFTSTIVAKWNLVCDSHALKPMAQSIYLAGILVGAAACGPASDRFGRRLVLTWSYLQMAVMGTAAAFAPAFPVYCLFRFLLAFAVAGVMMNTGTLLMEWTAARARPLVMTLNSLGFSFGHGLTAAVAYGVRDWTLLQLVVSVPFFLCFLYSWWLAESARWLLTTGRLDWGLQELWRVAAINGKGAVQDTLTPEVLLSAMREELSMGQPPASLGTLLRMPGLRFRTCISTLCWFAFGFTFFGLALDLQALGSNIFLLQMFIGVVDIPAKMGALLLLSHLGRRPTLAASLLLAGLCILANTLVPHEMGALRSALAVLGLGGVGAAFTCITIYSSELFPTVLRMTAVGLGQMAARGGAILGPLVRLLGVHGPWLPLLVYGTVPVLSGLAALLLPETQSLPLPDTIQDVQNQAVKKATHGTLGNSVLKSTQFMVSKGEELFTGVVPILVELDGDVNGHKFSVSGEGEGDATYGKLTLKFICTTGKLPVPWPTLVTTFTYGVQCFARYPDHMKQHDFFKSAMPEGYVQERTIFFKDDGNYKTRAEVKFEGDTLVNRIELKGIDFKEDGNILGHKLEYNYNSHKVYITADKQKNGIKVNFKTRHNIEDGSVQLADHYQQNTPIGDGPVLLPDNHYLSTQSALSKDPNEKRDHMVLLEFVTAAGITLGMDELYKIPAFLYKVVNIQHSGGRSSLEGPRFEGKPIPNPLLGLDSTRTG
test-summary: URAT-1 inhibitor activity: [14C]-uric acid uptake into CHO-URAT1(L)GFP#8 (CHO#8) cells, scintillation proximity
Format: cell-based
pIC50: −log10 of the molar value.
measurement-kind: pIC50

Incoming: Reported pIC50 for Cc1ccccc1Oc1ccc(S(=O)(=O)Nc2ncc(F)s2)cc1C#N [Example 112] : what is it?
Outgoing: 5.39

P = N#Cc1cc(S(=O)(=O)Nc2ncns2)ccc1Oc1cc(Cl)ccc1OC(F)F [Example 31]
Q = N#Cc1cc(S(=O)(=O)Nc2nccs2)ccc1Oc1ccccc1Br [compound 182]
R = N#Cc1cc(S(=O)(=O)Nc2nccs2)ccc1Oc1cccc(Cl)c1C#N [compound 180]
Incoming: Order these by pIC50, descending, and give the full ranking. A complete answer lists every label in the requested sequence.
Outgoing: R, Q, P
(R: 6.09, Q: 5.88, P: 5.65)

* * *

target-of-assay: URAT-1 transporter (Homo sapiens, UniProt Q96S37)
Construct: expressed in transfected cells
test-summary: URAT-1 inhibitor activity: [14C]-uric acid uptake into CHO-URAT1(L)GFP#8 (CHO#8) cells, scintillation proximity
Assay type: cell-based
measurement-kind: IC50 (µM)

Incoming: Reported IC50 for "COc1cc(F)ccc1Oc1ccc(S(=O)(=O)Nc2ncns2)cc1C#N" : what is it?
Outgoing: 1.01

1 = N#Cc1cc(S(=O)(=O)Nc2ncns2)ccc1Oc1ccc(Cl)cc1F
2 = COc1ccc(Cl)c(Oc2cc(F)c(S(=O)(=O)Nc3nncs3)cc2Cl)c1
3 = N#Cc1cc(S(=O)(=O)Nc2ncc(F)s2)ccc1Oc1ccc(Cl)cc1OC(F)(F)F
Incoming: Kindly order the items shown according to IC50, from the highest value down. As an answer, provide the labels arranged in the order called for.
Outgoing: 3, 1, 2
(3: 2.63 µM, 1: 0.65 µM, 2: 0.369 µM)

* * *

target-of-assay: URAT-1 transporter (Homo sapiens, UniProt Q96S37)
Construct: expressed in transfected cells
test-summary: URAT-1 inhibitor activity: [14C]-uric acid uptake into CHO-URAT1(L)GFP#8 (CHO#8) cells, scintillation proximity
Assay type: cell-based
pIC50: −log10 of the molar value.
measurement-kind: pIC50

Incoming: # lookup: pIC50 of N#Cc1ccc(Oc2cc(F)c(S(=O)(=O)Nc3ncns3)cc2F)cc1Cl [compound 208]
Outgoing: 5.75

I = N#Cc1cc(S(=O)(=O)Nc2ncns2)ccc1Oc1ccc(Cl)cc1 [Example 13]
II = N#Cc1cc(S(=O)(=O)Nc2nccs2)ccc1Oc1cccc(I)c1 [compound 167]
Incoming: Sorting ascending by pIC50, which comes first: I or II ? Return value: the label identifying the chosen record.
Outgoing: I

* * *

target-of-assay: URAT-1 transporter (Homo sapiens, UniProt Q96S37)
Construct: expressed in transfected cells
test-summary: URAT-1 inhibitor activity: [14C]-uric acid uptake into CHO-URAT1(L)GFP#8 (CHO#8) cells, scintillation proximity
Type: cell-based
pIC50: −log10 of the molar value.
measurement-kind: pIC50

Examples with answers:
Incoming: Given the entry N#Cc1cc(S(=O)(=O)Nc2ncc(F)s2)ccc1Oc1cc(F)c(F)c(F)c1 [Example 118] , report its measured pIC50.
Outgoing: 5.86

Incoming: Which pIC50 reading was recorded for the molecule N#Cc1cc(S(=O)(=O)Nc2ncns2)ccc1Oc1cc(F)ccc1F [Example 50] ?
Outgoing: 5.59

Incoming: // returns reported pIC50 for input COc1cccc(C)c1Oc1cc(F)c(S(=O)(=O)Nc2nncs2)cc1Cl [compound 321]
Outgoing: 6.56

Incoming: State the recorded pIC50 for this entry: Cc1cc(F)ccc1Oc1ccc(S(=O)(=O)Nc2ncns2)cc1C#N [Example 39]
Outgoing: 6.00

Incoming: Item under review: N#Cc1cc(S(=O)(=O)Nc2ncc(F)s2)ccc1Oc1ccc(F)c(C(F)(F)F)c1 [Example 143] . Reported pIC50?
Outgoing: 6.25

Incoming: Given the molecule CCOc1cc(C)ccc1Oc1ccc(S(=O)(=O)Nc2ncns2)cc1C#N [compound 259] , what is its reported pIC50?
Outgoing: 5.50

A = COc1cc(C)ccc1Oc1cc(F)c(S(=O)(=O)Nc2nncs2)cc1Cl [compound 299]
B = N#Cc1ccc(Oc2ccc(S(=O)(=O)Nc3ncc(F)s3)cc2C#N)cc1Cl [Example 244]
Incoming: Field: lower recorded pIC50 (choose A or B ) Pick one and reply with its label.
Outgoing: A

I = CC(C)c1cccc(Oc2ccc(S(=O)(=O)Nc3nccs3)cc2F)c1 [Example 66]
II = N#Cc1cc(S(=O)(=O)Nc2ncc(Cl)s2)ccc1Oc1cccc(C(F)(F)F)c1 [Example 89]
Incoming: Determine, for I and II , which has the greater value of pIC50. Refer to your chosen item by its label in the answer.
Outgoing: II

The values you see were collected from patent US20140315933A1.
